test: Azithromycin solubility as a function of pH; format: physicochemical; conditions: pH 6.15, aqueous buffer; read-out: Azithromycin Solubility
EXPERIMENTAL READOUT: solubility (mg/mL)

COMPOUND	VALUE UNITS	OBSERVED VALUE
CC[C@H]1OC(=O)[C@H](C)[C@@H](O[C@H]2C[C@@](C)(OC)[C@@H](O)[C@H](C)O2)[C@H](C)[C@@H](O[C@@H]2O[C@H](C)C[C@H](N(C)C)[C@H]2O)[C@](C)(O)C[C@@H](C)CN(C)[C@H](C)[C@@H](O)[C@]1(C)O [Azithromycin, azithromycin]	mg/mL	380

###

experiment: Azithromycin solubility as a function of pH; format: physicochemical; details: pH 8.02, aqueous buffer; read-out: Azithromycin Solubility

SMI	VALUE UNITS	solubility
CC[C@H]1OC(=O)[C@H](C)[C@@H](O[C@H]2C[C@@](C)(OC)[C@@H](O)[C@H](C)O2)[C@H](C)[C@@H](O[C@@H]2O[C@H](C)C[C@H](N(C)C)[C@H]2O)[C@](C)(O)C[C@@H](C)CN(C)[C@H](C)[C@@H](O)[C@]1(C)O	µg/mL	500
